FYI, the data here is from PubChem BioAssay (Tox21).

Test: qHTS assay to identify small molecule agonists or antagonists of the thyroid stimulating hormone receptor (TSHR) signaling pathway - wild type cell line counter screen (AID 1259384)
Conditions: HEK293 wild type, cAMP HTRF counter-screen, active compounds read high; series mostly up to 92.4 µM
Inconclusive results are not listed. Active and inactive are the calls of the source. Calls follow the shape of the full dose curve.
Measurement Type: cAMP activity change

# Compound, cAMP activity change
data = [
    ("Cc1[nH]cnc1C[C@H]1CCc2c(C)c3ccccc3n2C1=O", "inactive"),
    ("C[C@H]1[C@H]2CC[C@H]3[C@@H]4CC=C5C[C@@H](N(C)C)CC[C@]5(C)[C@H]4CC[C@]23CN1C", "inactive"),
    ("CCCN(CCC)c1c([N+](=O)[O-])cc(C(F)(F)F)c(N)c1[N+](=O)[O-]", "inactive"),
    ("Clc1ccc(C(Cn2ccnc2)OCc2ccc(Sc3ccccc3)cc2)c(Cl)c1 (stereo not given)", "inactive"),
]

CN(C)[C@@H]1C(=O)C(C(N)=O)=C(O)[C@@]2(O)C(=O)C3=C(O)c4c(O)cccc4C[C@H]3C[C@@H]12 yielded cAMP activity change of inactive

====

Assay: A CellTox Green Cytotoxicity Assay to monitor cytotoxicity in HepG2 cells - 8 hour (AID 1224890); also: nearly all actives have a fitted effect of over 45% in size
Conditions: CellTox Green fluorescence; series mostly up to 76.8 µM
Results filed as inconclusive are left out. Active and inactive are the calls of the source. The call rests on the fitted dose curve; in most records, active means well fitted activation curve with a large enough effect in the repeat runs; inconclusive means weak or mixed curves; inactive means flat fitted curve, though single readings scatter.
Write down one outcome, taken from active, inactive

Take a look at these entries with their results.
# Compound, Label
measured = [
    ("Cc1ccc2oc(CN(Cc3ccccc3)C(=O)Nc3c(F)cc(F)cc3F)c(-c3ccc(Cl)cc3)c2c1", "inactive"),
    ("Cc1cc2c(cc1C(F)(F)F)N(C(=O)Nc1ccc(Oc3cccnc3C)nc1)CC2", "inactive"),
    ("CC(=O)OCC(C)OC(C)=O (stereo not drawn)", "inactive"),
    ("CN(C)C(=O)C1(N2CCCCC2)CCN(CC[C@@]2(c3ccc(Cl)c(Cl)c3)CN(C(=O)c3ccccc3)CCO2)CC1", "active"),
    ("Fc1ccc(C(c2ccc(F)cc2)N2CCN(C/C=C/c3ccccc3)CC2)cc1", "inactive"),
]

stdin: In this assay, the call recorded for CCCCN(CCCC)c1ccc(C(=O)c2ccccc2C(=O)O)c(O)c1 was what?
stdout: inactive

stdin: In this assay, the call recorded for Cc1onc(-c2ccccc2Cl)c1C(=O)N[C@@H]1C(=O)N2[C@@H]1SC(C)(C)[C@@H]2C(=O)O was what?
stdout: inactive

stdin: In this assay, the call recorded for O=c1[nH]cnc2nc[nH]c12 was what?
stdout: inactive

stdin: In this assay, the call recorded for O=c1c(-c2ccccc2)c1-c1ccccc1 was what?
stdout: inactive

stdin: In this assay, the call recorded for Fc1ccc([C@@H]2CCNC[C@H]2COc2ccc3c(c2)OCO3)cc1 was what?
stdout: inactive

stdin: In this assay, the call recorded for O=C(Nc1cccc([N+](=O)[O-])c1)c1cc2ccccc2cc1O was what?
stdout: inactive

stdin: In this assay, the call recorded for CCN(C(=O)N(CC)c1ccccc1)c1ccccc1 was what?
stdout: inactive

stdin: In this assay, the call recorded for CCOC(=O)O[C@]1(C(=O)OCCl)CC[C@H]2[C@@H]3CCC4=CC(=O)C=C[C@]4(C)[C@H]3[C@@H](O)C[C@@]21C was what?
stdout: inactive

====

Assay: qHTS assay to identify small molecule antagonists of the estrogen related receptor signaling pathway with the pleiotropic PPARgamma coactivator (PGC) from Tox21 10K library - cell viability counter screen (AID 1224840); also: nearly all actives have a fitted effect of over 40% in size; also: potency is read from the fitted curve at half-maximal effect
Conditions: PGC/ERR reporter cells viability, CellTiter-Fluor, 17.5 h; series mostly up to 92.4 µM
Results filed as inconclusive are left out. The source made the active and inactive calls. Calls follow the shape of the dose curve; as a rule, active = well fitted cell-killing curve with a large enough effect in the repeat runs (not every such curve was filed as active); inconclusive = weak or mixed curves, or effect the other way; inactive = no such curve, though single readings can be large or run the other way.
Measurement Type: Potency

Consider the following illustrative entries.
# Molecule, Potency
data = [
    ("CCCCC(CC)CN=C(N)NC(N)=NCCCCCCN=C(N)NC(N)=NCC(CC)CCCC (stereo unspecified)", "16.8 µM (active)"),
    ("Cc1ccc(O)c(C(C)(C)C)c1", "inactive"),
    ("O=[N+]([O-])c1cc([N+](=O)[O-])c2ccc(S(=O)(=O)O)cc2c1O", "24.2 µM (active)"),
    ("CCCCN1CCCC[C@H]1C(=O)Nc1c(C)cccc1C", "inactive"),
    ("O=C(c1ccc(F)cc1)C1CCN(CCn2c(=O)[nH]c3ccccc3c2=O)CC1", "inactive"),
]

We next turn to a different molecule, shown below.
Cc1cc(O)c(Cl)c(C)c1Cl yielded Potency of inactive

====

Biological target: Luciferin 4-monooxygenase (Photinus pyralis)
Test: qHTS assay to identify small molecule inhibitors of firefly luciferase (AID 1224835); also: nearly all actives have a fitted effect of over 25% in size
Conditions: purified P. pyralis luciferase, luminescence inhibition; series mostly up to 115 µM
Inconclusive results are not listed. Calls of active or inactive are those of the source. Calls follow the shape of the dose curve; as a rule, active = well fitted inhibition curve with a large enough effect in the repeat runs; inconclusive = weak or mixed curves; inactive = flat fitted curve, though single readings scatter.
Write down one outcome, taken from active, inactive

Take a look at these entries with their results.
# Compound, Tested System, Label
records = [
    ("CC(=O)OCC(C)OC(C)=O (stereo not drawn)", "Luciferin 4-monooxygenase (Photinus pyralis)", "inactive"),
    ("O=[N+]([O-])c1cc(Cl)c(Cl)c(Cl)c1Cl", "Luciferin 4-monooxygenase (Photinus pyralis)", "inactive"),
    ("COC(=O)c1cc(Cl)ccc1OC", "Luciferin 4-monooxygenase (Photinus pyralis)", "inactive"),
]

stdin: In this assay, the call recorded for OCCCCCCCCCCCCBr was what?
stdout: inactive

====

Molecular target: Nuclear receptor subfamily 1 group I member 3 (Homo sapiens) (UniProt Q14994)
Sequence (Q14994 whole entry, looked up): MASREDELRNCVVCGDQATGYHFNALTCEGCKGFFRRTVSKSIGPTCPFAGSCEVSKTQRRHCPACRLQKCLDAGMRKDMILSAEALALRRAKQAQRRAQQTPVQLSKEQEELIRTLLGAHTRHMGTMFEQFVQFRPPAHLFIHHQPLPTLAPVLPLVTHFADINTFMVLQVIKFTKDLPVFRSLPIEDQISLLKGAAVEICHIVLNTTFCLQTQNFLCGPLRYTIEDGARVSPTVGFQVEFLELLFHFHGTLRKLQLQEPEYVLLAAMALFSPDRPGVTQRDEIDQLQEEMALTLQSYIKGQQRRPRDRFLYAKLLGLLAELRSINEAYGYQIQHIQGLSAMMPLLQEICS
Experiment: qHTS assay to identify small molecule antagonists of the constitutive androstane receptor (CAR) signaling pathway (AID 1224838);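 also: HepG2 cells stably expressing hCAR with CYP2B6 luciferase reporter stimulated by CITCO; nearly all actives have a fitted effect of over 40% in size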
Conditions: HepG2-CYP2B6-hCAR luciferase, CITCO-stimulated, 24 h; series mostly up to 92.4 µM
Inconclusive results are not listed. Calls of active or inactive are those of the source. Calls come from the whole dose curve; as a rule, active = well fitted inhibition curve with a large enough effect in the repeat runs; inconclusive = weak or mixed curves, or effect the other way; inactive = no such curve, though single readings can be large or run the other way.
Write down one outcome, taken from Y (active), N (inactive)

Take a look at these entries with their results.
# Molecule, Label
rows = [
    ("[Cl][Bi]([Cl])([c]1ccccc1)([c]1ccccc1)[c]1ccccc1", "Y"),
    ("Cc1c(C)c2c(c(C)c1OC(=O)CCC(=O)O)CC[C@@](C)(CCC[C@H](C)CCC[C@H](C)CCCC(C)C)O2", "N"),
    ("O=C(OCC1CO1)C1CCCCC1C(=O)OCC1CO1 (stereo unspecified)", "N"),
    ("CCCCCCCCOc1ccccc1C(=O)Nc1ccc(C(=O)OCC[N+](C)(CC)CC)cc1", "N"),
    ("CCCCCCCCCCCCCCCS(=O)(=O)Oc1ccccc1", "N"),
    ("CCN(CCC#N)c1ccc(N=Nc2c(Cl)cc([N+](=O)[O-])cc2Cl)cc1", "N"),
]

stdin: In this assay, the call recorded for O=CC=C(c1ccccc1)c1ccccc1 was what?
stdout: N

stdin: In this assay, the call recorded for CC(C)CCCCCCCCCCCCCCC(=O)O was what?
stdout: N

stdin: In this assay, the call recorded for C=CC(=O)OCCn1c(=O)n(CCOC(=O)C=C)c(=O)n(CCOC(=O)C=C)c1=O was what?
stdout: Y

stdin: In this assay, the call recorded for CCCCCCCCCCCCCC[P+](CCCC)(CCCC)CCCC (tested in a mixture with another compound) was what?
stdout: Y

stdin: In this assay, the call recorded for Oc1ccc(Cl)cc1Sc1cc(Cl)ccc1O was what?
stdout: Y

====

Experiment: qHTS RealTime-Glo MT Cell Viability Assay in HEK293 cells - 32 hour (AID 1224868); also: nearly all actives have a fitted effect of over 50% in size; also: potency is read from the fitted curve at half-maximal effect
Settings: RealTime-Glo luminescence; series mostly up to 76.8 µM
Inconclusive results are not listed. Activity calls are given as the source filed them. Calls follow the shape of the dose curve; as a rule, active = well fitted cell-killing curve with a large enough effect in the repeat runs; inconclusive = weak or mixed curves, or effect the other way; inactive = flat fitted curve, though single readings scatter.
Measurement Type: Potency

Consider the following illustrative entries.
# Compound, Measurement Type, Result
measured = [
    ("CCCC(C)c1ccccc1O (configuration not stated)", "Potency", "inactive"),
    ("COC(=O)C1=C(C)NC(C)=C(C(=O)OCC(C)C)C1c1ccccc1[N+](=O)[O-] (configuration not stated)", "Potency", "21.9 µM (active)"),
    ("O=c1[nH]sc2ccccc12", "Potency", "30.9 µM (active)"),
    ("COc1ccc(C(=O)/C(Br)=C\\C(=O)O)cc1", "Potency", "38.9 µM (active)"),
    ("O=C1CCCCCN1SSN1CCCCCC1=O", "Potency", "inactive"),
    ("Cc1[nH]cnc1C[C@H]1CCc2c(C)c3ccccc3n2C1=O", "Potency", "23.9 µM (active)"),
]

We next turn to a different compound, shown below.
CCCC(c1cc(C(C)(C)C)c(O)cc1C)c1cc(C(C)(C)C)c(O)cc1C yielded Potency of 19.7 µM (active)

====

Experiment: A CellTox Green Cytotoxicity Assay to monitor cytotoxicity in HepG2 cells - 24 hour (AID 1224878); also: nearly all actives have a fitted effect of over 45% in size
Conditions: CellTox Green fluorescence; series mostly up to 76.8 µM
Results filed as inconclusive are left out. Activity calls are given as the source filed them. Calls come from the whole dose curve; as a rule, active = well fitted activation curve with a large enough effect in the repeat runs; inconclusive = weak or mixed curves; inactive = flat fitted curve, though single readings scatter.
Write down one outcome, taken from YES = active, NO = inactive

Take a look at these entries with their results.
# Compound, Label
data = [
    ("O=C(O)c1cc(O)c2c(c1)C(=O)c1cccc(O)c1C2=O", "NO"),
    ("CCCCCCCCCCCC[N+](C)(C)CCCCCCCCCCCC", "YES"),
    ("COc1cc(-c2ccc(N=C=O)c(OC)c2)ccc1N=C=O", "NO"),
    ("Cc1c(C)c2c(c(C)c1O)CCC(C)(COc1ccc(CC3SC(=O)NC3=O)cc1)O2 (centres undefined)", "NO"),
]

stdin: In this assay, the call recorded for O=C1c2c(O)ccc(Nc3ccc(CCO)cc3)c2C(=O)c2c([N+](=O)[O-])ccc(O)c21 was what?
stdout: NO

stdin: In this assay, the call recorded for COc1cc(/C=C/C(=O)O[C@H]2CC[C@]34C[C@]35CC[C@]3(C)[C@@H]([C@H](C)CCC=C(C)C)CC[C@@]3(C)[C@@H]5CC[C@H]4C2(C)C)ccc1O was what?
stdout: NO

stdin: In this assay, the call recorded for C1CCCC1 was what?
stdout: NO

stdin: In this assay, the call recorded for CC[C@@]1(O)C(=O)OCc2c1cc1n(c2=O)Cc2cc3c(CN(C)C)c(O)ccc3nc2-1 was what?
stdout: YES

stdin: In this assay, the call recorded for Nc1ccc2c3c(cccc13)-c1ccccc1-2 was what?
stdout: YES
